System: HS 578T breast
PROTOCOL TEXT: NCI-60 one-dose screen, 48 h (100 = growth as untreated, 0 = no growth, -100 = all killed)
TEST SETTINGS: 10 µM unless noted
Protocol: Growth inhibition of the HS 578T human tumor cell line is measured as a screen for anti-cancer activity. Cells are grown in 96 well plates and exposed to the test compound for 48 hours. Compounds are tested at a single concentration, which is 10^-5 M for most compounds. The reported endpoint is percent growth (GI% or GIPRCNT), where numbers from 0 - 100% represent growth inhibition, and numbers from -100% - 0 represent cell death. For example, a value of 40 represents 60% growth inhibition. […]
The panel holds about 83,000 compounds, 20% with a hit somewhere; the sample as a whole holds those more often.

COMPOUND	growth (%)
Nc1nc2cc(-c3ccc4ncnc(NCc5ccccc5)c4c3)ccc2o1	-34.8
COc1ccc(Nc2nnc(-c3c[nH]c4ccccc34)o2)cc1	81.2
Cc1ccc2c(c1)/C(=C/C(=O)c1cc3ccccc3oc1=O)C(=O)N2	78
O=C(c1ccc(Cl)cc1)C1[C@H](c2ccccc2Cl)[C@@H](c2ccccc2)NC12C(=O)Nc1ccc(Cl)cc12 (some centres undefined)	-40.4
C=CCSc1nnc(-c2ccc(-c3nc4ccccc4[nH]3)cc2)o1	79
OCCn1cc(-c2nc3ccc4[nH]ncc4c3c3c2CCCC3)cn1	21.6
COc1cncc(-c2ccc3ncnc(N4CCc5ccc(Cl)cc54)c3c2)c1	20.1
CCCCCCCOc1ccc(S(=O)(=O)Nc2ccc(C)c(F)c2C(=O)O)cc1	87.8
COc1ccc2[nH]cc(-c3cc4nc(-c5cn(C)c6ncccc56)cc(N)n4n3)c2c1	-10.3

###

Tested on: UACC-62 melanoma
PROTOCOL TEXT: NCI-60 one-dose screen, 48 h (100 = growth as untreated, 0 = no growth, -100 = all killed)
TEST SETTINGS: 10 µM unless noted
This is part of a sample that, as a whole, favours compounds with a hit. Of some 83,000 tested, about 20% had one in any assay. Active and inactive are the calls of the source. The calls were made as follows: active = growth percent below 10; inactive = the rest.

COMPOUND	growth
N#CC1=C(c2ccco2)Nc2c(c(-c3ccccc3)nn2-c2ccccc2)C12C(=O)Nc1ccc(Cl)cc12 (configuration not stated)	37.4% (inactive)
Cc1ccc2nc(SCc3ccccc3F)n(-c3ccccc3)c(=O)c2c1	74.3% (inactive)
N#CCc1nnc(NC(=O)c2ccc(-n3c(=O)[nH]c4ccccc4c3=O)cc2)s1	86.8% (inactive)
O=C1c2cccc3c(N4CCN(Cc5ccccc5)CC4)ccc(c23)C(=O)N1c1cccc(-c2nn(-c3ccccc3)cc2-c2nc3ccccc3s2)c1	94.6% (inactive)
COc1ccc(-c2nc3ccccc3n2CC(=O)N=Nc2c(O)[nH]c3ccc(Br)cc23)cc1	72.1% (inactive)
O=C(NNC(=O)c1ccc(OCc2nc3ccc(Cl)cc3[nH]2)cc1)Nc1ccc(Cl)c(C(F)(F)F)c1	61.4% (inactive)
COc1cc(/C=C/C(=O)c2cnn(-c3cc(=O)[nH]c4ccc(Br)cc34)c2C)cc(OC)c1OC	-71.7% (active)
O=C1Nc2ccccc2/C1=C\c1ccc(OCC(=O)c2ccc(Br)cc2)cc1	52.6% (inactive)
Fc1ccc(N2CC(Cn3c(C(F)(F)F)cc4c(Cl)ncnc43)C2)c(F)c1	6.55% (active)
C=CCSc1nnc(-c2ccc(-c3nc4ccccc4[nH]3)cc2)o1	73.9% (inactive)
Cc1ccc(N=Nc2c(N)nn3c(-c4cc5cc(Br)ccc5oc4=O)ccnc23)cc1	99.5% (inactive)
O=Cc1cncc(-c2ccc3ncnc(N4CCc5cc(F)c(Cl)cc54)c3c2)c1	13.4% (inactive)
c1n[nH]cc1-c1nc2ccc3cn[nH]c3c2c2c1CCCC2	81.4% (inactive)
COc1ccc2[nH]c(=O)c(CSc3ccccc3Nc3nccc(-c4ccc(C(F)(F)F)cc4)n3)cc2c1	47.9% (inactive)
NNc1ncnc2sc3c(c12)CCN(Cc1ccccc1)C3	53.1% (inactive)
COc1ccc(-c2cc(C(=O)N=Nc3c(O)[nH]c4ccc(Cl)cc34)c3ccccc3n2)cc1	73.2% (inactive)
S=C(Nc1ccc(OCc2nc3ccc(Cl)cc3[nH]2)cc1)NC1CCCCC1	-12.7% (active)
COc1ccc2c(c1)C(=O)N(C)C2C1c2c(cc3c(c2OC)OCO3)CCN1C (configuration not stated)	26.8% (inactive)
Cc1ccc(C(=O)Nc2cc(-n3ccnc3C)cc(C(F)(F)F)c2)cc1C#Cc1cnc2cccnn12	-40% (active)
Fc1cccc(CNc2nc(SCCN3CCOCC3)nc3c2cnn3CC(Cl)c2ccc(Br)cc2)c1 (configuration not stated)	28.2% (inactive)
Clc1ccccc1Nc1nnc(-c2c[nH]c3ccccc23)o1	15.2% (inactive)
COc1cc(CNC(=O)[C@]23CCC(C)(C)CC2C2=CCC4[C@@]5(C)CCC(OC(C)=O)C(C)(C)C5CC[C@@]4(C)[C@]2(C)CC3)ccc1OCc1cn(-c2ccc(Cl)cc2Cl)nn1 (some centres not stated)	81.4% (inactive)
Cc1ccc2nc(NC(=O)Nc3cccc(Cl)c3)sc2c1	91.2% (inactive)
NC(=O)c1ccc(-c2ccc3ncnc(N4CCc5cc(F)c(Cl)cc54)c3c2)cn1	71.8% (inactive)
Cn1cc(-c2cc(N)n3nc(-c4c[nH]c5ccc(Cl)cc45)cc3n2)c2cc(Br)cnc21	-59.6% (active)
NC(=Nc1ccc(OCCCCCCCCn2cnnn2)cc1)c1ccccc1	28.3% (inactive)
Cc1nn(-c2ccccc2)c2nc(C)n(C(=O)N/N=C/c3cccc([N+](=O)[O-])c3)c(=O)c12	73.5% (inactive)
COc1cc(/C=C/C(=O)c2cnn(-c3cc(=O)[nH]c4ccc(Cl)cc34)c2C)cc(OC)c1OC	-49.1% (active)
CCN1C(=O)N(CC)C2NNC(Sc3c(C(=O)O)c4ccccc4n(CCC(C)C)c3=O)=NC21 (configuration not stated)	17.9% (inactive)
CC(=O)Nc1ccc(S(=O)(=O)Nc2ccc(-c3ccc4c(c3)NC(=O)/C4=C\c3ccc[nH]3)cc2)cc1	68.7% (inactive)
COc1cc(/C=C/C(=O)c2cnn(-c3cc(=O)[nH]c4ccccc34)c2C)cc(OC)c1OC	29.9% (inactive)
CC1=C(C(=O)Nc2ccccc2)C(c2ccc3ccccc3c2)n2c(nc3ccccc32)N1 (configuration not stated)	75% (inactive)
COc1ccc2[nH]c(O)c(N=Nc3nc(-c4ccc(Cl)cc4)cs3)c2c1	-32.3% (active)
Cc1cc(C(NC(=O)CCCCCNc2cccc3c2C(=O)N(C2CCC(=O)CC2=O)C3=O)c2cccc(N(C)C)c2)c(O)c2ncccc12 (configuration not stated)	-6.03% (active)
O=C1/C(=C/c2cccc3c2OCO3)Cc2c(F)cc(Br)cc21	91.8% (inactive)
Cc1ccc(C(C(=O)NC2CCCCC2)N(Cc2ccccc2Cl)C(=O)c2ccc(CN3CCOCC3)o2)o1 (configuration not stated)	66.2% (inactive)
COc1ccc2nc(NC(=O)c3ccc(N(C)C)cc3)sc2c1	69.9% (inactive)

###

Test system: UO-31 renal
PROTOCOL TEXT: NCI-60 one-dose screen, 48 h (100 = growth as untreated, 0 = no growth, -100 = all killed)
TEST SETTINGS: 10 µM unless noted
Compounds without any hit were thinned out: in the full panel of roughly 83,000, 20% have a hit.
Class True: growth at least 30%. Class False: growth below 30%.

COMPOUND	CLASS NAME
COc1ccc(C(=O)NNC(=O)CSc2nc3sc4c(c3c(=O)n2-c2ccc(Cl)cc2)CCCC4)cc1	True
NNc1ncnc2sc3c(c12)CCN(Cc1ccccc1)C3	True
COc1cc(C2CC(c3ccc(F)cc3)=Nc3c(N)nc(N)nc3N2)ccc1Oc1nc(Nc2ccc(F)cc2)nc(N(C)C)n1 (centres undefined)	True
FC(F)(F)CN1CCN(CCn2c(C(F)(F)F)cc3c(Cl)ncnc32)CC1	False
O=C(Nc1ccc(Cl)c(C(F)(F)F)c1)N1CCN(c2cc(-c3cn(-c4ccccc4)nc3-c3cccc(O)c3)ccn2)CC1	False
COc1cc(C=O)ccc1OC(=O)c1cc(-c2ccc(C)cc2)n(-c2ccc(S(C)(=O)=O)cc2)n1	True
Cc1oc(-c2ccccc2)nc1CN[C@@H]1C[C@@H]2C[C@H]([C@H]1C)C2(C)C	False
COc1cc(NC(=O)C(C)C)ccc1C(=O)NC(=S)Nc1ccc(S(N)(=O)=O)cc1	True

###

Test system: HCT-116 colon
PROTOCOL TEXT: NCI-60 one-dose screen, 48 h
TEST SETTINGS: 10 µM unless noted
Compounds without any hit were thinned out: in the full panel of roughly 83,000, 20% have a hit. The source made the active and inactive calls. The calls were made as follows: active = growth percent below 10; inactive = the rest.
Classes used: active, inactive

MOLECULE	CLASS NAME
C=CC[n+]1cccc2c3ccccc3ccc21	inactive
O=C(Cn1c(-c2ccccc2)nc2ccccc21)N=Nc1c(O)[nH]c2ccc(Cl)cc12	active
CCCn1c(NC(=O)c2cccc(C(N)=O)c2)nc2cc(CN3CCCCC3)ccc21	active
O=C(Nc1nc2ccc([N+](=O)[O-])cc2s1)Nc1ccc(Cl)cc1Cl	inactive
COc1cc(C2C(C(=O)OCc3ccccc3)=C(C)Nc3nc4ccccc4n32)cc(OC)c1OC (stereo not given)	active
